Target: IKZF1 (Homo sapiens, UniProt Q13422+Q96SW2)
Construct: expressed in transfected cells
Sequence (Q13422 whole entry): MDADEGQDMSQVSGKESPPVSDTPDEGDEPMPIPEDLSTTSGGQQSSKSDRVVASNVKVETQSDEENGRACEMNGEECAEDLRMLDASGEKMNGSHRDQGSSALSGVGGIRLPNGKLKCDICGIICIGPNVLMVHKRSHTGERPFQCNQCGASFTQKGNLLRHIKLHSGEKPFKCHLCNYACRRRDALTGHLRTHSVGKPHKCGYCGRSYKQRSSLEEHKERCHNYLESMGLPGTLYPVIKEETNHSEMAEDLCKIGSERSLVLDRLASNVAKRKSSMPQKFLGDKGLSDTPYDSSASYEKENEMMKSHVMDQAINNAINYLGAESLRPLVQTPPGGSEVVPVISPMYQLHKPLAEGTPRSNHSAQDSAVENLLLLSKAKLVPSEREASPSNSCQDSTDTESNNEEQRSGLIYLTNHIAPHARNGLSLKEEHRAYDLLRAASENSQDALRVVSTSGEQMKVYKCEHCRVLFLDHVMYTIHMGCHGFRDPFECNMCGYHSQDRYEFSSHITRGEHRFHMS
Sequence (Q96SW2 whole entry): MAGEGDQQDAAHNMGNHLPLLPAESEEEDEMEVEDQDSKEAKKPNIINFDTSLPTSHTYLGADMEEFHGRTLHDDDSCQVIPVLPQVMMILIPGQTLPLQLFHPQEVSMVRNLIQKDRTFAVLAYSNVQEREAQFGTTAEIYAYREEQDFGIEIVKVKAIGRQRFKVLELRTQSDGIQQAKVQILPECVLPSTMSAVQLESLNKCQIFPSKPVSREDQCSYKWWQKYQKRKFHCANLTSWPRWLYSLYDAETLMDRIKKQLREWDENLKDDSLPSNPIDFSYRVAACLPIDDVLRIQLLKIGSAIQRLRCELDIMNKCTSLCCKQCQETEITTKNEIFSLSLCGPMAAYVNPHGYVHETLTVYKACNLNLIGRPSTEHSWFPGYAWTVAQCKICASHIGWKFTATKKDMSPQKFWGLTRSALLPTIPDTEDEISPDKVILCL
Sequence (Q16531 whole entry partner): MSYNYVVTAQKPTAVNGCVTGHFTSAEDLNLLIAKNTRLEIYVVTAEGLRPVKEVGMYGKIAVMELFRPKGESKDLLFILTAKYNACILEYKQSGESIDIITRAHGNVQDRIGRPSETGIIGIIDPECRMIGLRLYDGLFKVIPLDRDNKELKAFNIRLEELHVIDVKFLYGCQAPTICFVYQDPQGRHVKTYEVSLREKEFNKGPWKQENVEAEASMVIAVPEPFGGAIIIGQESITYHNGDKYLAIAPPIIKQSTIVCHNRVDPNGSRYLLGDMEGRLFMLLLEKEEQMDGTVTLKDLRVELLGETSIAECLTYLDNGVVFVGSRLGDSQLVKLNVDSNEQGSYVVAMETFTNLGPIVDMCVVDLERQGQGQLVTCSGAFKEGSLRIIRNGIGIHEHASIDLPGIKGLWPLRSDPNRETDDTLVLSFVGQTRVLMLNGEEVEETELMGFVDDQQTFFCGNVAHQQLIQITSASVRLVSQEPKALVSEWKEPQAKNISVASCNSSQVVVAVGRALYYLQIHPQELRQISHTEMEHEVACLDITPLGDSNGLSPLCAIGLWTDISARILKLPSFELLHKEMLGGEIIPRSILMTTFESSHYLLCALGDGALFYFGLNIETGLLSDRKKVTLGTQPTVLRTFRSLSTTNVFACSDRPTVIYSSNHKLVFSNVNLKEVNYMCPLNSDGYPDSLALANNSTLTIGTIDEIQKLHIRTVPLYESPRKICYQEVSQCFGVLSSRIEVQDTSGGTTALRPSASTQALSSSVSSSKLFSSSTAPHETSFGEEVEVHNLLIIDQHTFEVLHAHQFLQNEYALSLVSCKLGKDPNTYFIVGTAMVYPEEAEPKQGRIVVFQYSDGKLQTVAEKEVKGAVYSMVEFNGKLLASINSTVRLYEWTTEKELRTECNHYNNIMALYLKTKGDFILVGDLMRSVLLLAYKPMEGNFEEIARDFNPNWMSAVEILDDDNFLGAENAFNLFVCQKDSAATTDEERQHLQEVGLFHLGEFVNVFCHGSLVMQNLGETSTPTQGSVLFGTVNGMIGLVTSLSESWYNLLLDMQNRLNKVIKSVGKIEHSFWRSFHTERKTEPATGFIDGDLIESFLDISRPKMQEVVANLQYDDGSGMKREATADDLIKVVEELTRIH
Assay: HEK293 HiBiT in vitro degradation of IKZF1
Assay type: cell-based
Conditions: HEK293 HiBiT, 18-24 hr incubation, normalized to DMSO control; read-out: IKZF1 EC50
Quick rule for you: DC50 under 100 nM gets Satisfied, anything else gets Not satisfied.

These recorded examples may help you get a feel for the data.
>>> df
                                   compound  discrete_label
0  O=C1CCC(N2Cc3c(ccc(C[C@H]4CCCC[C@@H]4NC4CCOC4)c3F)C2=O)C(=O)N1 (stereo partly shown) [Example 190]       Satisfied
1  O=C1CCC(N2Cc3cc(C[C@H]4CCCC[C@@H]4NCc4ncc(F)cc4F)ccc3C2=O)C(=O)N1 (stereo partly shown)   Not satisfied

Incoming: Decide: DC50 of O=C1CCC(N2Cc3cc(C[C@H]4CCCC[C@@H]4NCC4COC4)ccc3C2=O)C(=O)N1 (stereo partly shown) strictly below 100 nM?
Outgoing: Not satisfied

Incoming: Next record, please: O=C1CCC(N2Cc3c(ccc(C[C@H]4CCCC[C@@H]4NCC4COC4)c3F)C2=O)C(=O)N1 (stereo partly shown) [Example 186]
Outgoing: Satisfied

Incoming: Param item: O=C1CCC(N2Cc3cc(C[C@H]4CCCC[C@@H]4NC4CC5(CCOCC5)C4)ccc3C2=O)C(=O)N1 (stereo partly shown)
Outgoing: Not satisfied

Incoming: What do you get for O=C1CCC(N2Cc3cc(C[C@H]4CC(CO)CC[C@@H]4NC4CCCCC4)ccc3C2=O)C(=O)N1 (single isomer, unassigned) [Example 383] ?
Outgoing: Not satisfied

Incoming: Let us now turn to O=C1CCC(N2Cc3cc(C[C@H]4CCCC[C@@H]4NC4CCC5(CCO5)CC4)ccc3C2=O)C(=O)N1 (stereo partly shown) [Example 172]
Outgoing: Not satisfied

Incoming: Same again, this time with CC(N[C@H]1CCCC[C@@H]1Cc1ccc2c(c1)CN(C1CCC(=O)NC1=O)C2=O)C1(C)CCC1 (stereo partly shown) [Example 206]
Outgoing: Not satisfied

Incoming: Cool, now CC(N[C@H]1CCCC[C@@H]1Cc1ccc2c(c1)CN(C1CCC(=O)NC1=O)C2=O)C1CCC1 (stereo partly shown) [Example 219]
Outgoing: Not satisfied

Incoming: And the next one, COCC1CCC(N[C@H]2CCCC[C@@H]2Cc2ccc3c(c2)CN(C2CCC(=O)NC2=O)C3=O)CC1 (single isomer, unassigned) [Example 252] ?
Outgoing: Not satisfied
